protocolNotes: NCI Yeast Anticancer Drug Screen. Data for the mlh1 rad18 strain (AID 175)
studyConditions: S. cerevisiae mlh1 rad18 strain growth inhibition; at 50.0 µM; hits give high values
This is part of a sample that, as a whole, favours compounds with a hit. Of some 79,000 tested, about 15% had one in any assay.
Let's look at some compounds and their measured growth inhibition.
Express the result in % but write the number alone.

These solved cases illustrate the format of a correct answer.
compound	growth inhibition [%]
NC(CO)C(=O)NCC(=O)O (stereo unspecified)	-23.9
CCOc1ccc(NC(=O)C2=C(C)NC(C)=C(C(=O)Nc3ccc(OCC)cc3)C2c2ccc(O)c(OC)c2)cc1	-8.1
Nc1nc(-c2ccc3c(ccc4ccccc43)c2)cs1	28.2
COC(=O)CCCC(NC(=O)c1ccc([N+](=O)[O-])cc1)C(=O)OC (stereo unspecified)	14.9
O=[N+]([O-])c1ccc(-n2nnc3ccccc32)nc1	-9.75
CC(C)NCc1ccccc1Sc1ccccc1CNC(C)C	16.2
CS/C(=C/c1ccc2ccccc2[n+]1C)N1CCN(C)CC1	-0.2
CCCc1c(C(=O)OCC)[nH]c(C(=O)CCC(=O)c2[nH]c(C(=O)OCC)c(CCC)c2C(=O)OCC)c1C(=O)OCC	2.35
C1C[OH+]CC[OH+]CCNCC[OH+]CC[OH+]CCN1.Cl.[Cl-].[Pt+4]	7
NC(=S)N/N=C1/CC(=O)N(c2ccccc2)C1c1ccccc1 (stereo unspecified)	38.9

Consider the compound CCOC(=O)/C(C#N)=C/N=c1ccccn1C and give its measured growth inhibition.
-4.5

Consider the compound O=C(O)C(Br)C(Br)C(=O)Nc1ccc(F)cc1 (stereo unspecified) and give its measured growth inhibition.
99.3

Consider the compound CCCCCCCCCCCCSC(=O)NCCC and give its measured growth inhibition.
1.4

Consider the compound Cc1cccc2c1c1ccc3c(c1n2C)C(=O)C=CC3=O and give its measured growth inhibition.
-5

Consider the compound O=C(O)CNc1ncnc2[nH]ncc12 and give its measured growth inhibition.
6

Consider the compound O=[N+]([O-])c1cccc(C2OCC3(CO2)COC(c2cccc([N+](=O)[O-])c2)OC3)c1 (stereo unspecified) and give its measured growth inhibition.
10.8

Consider the compound CCO/C=C\C(OCC)OCC and give its measured growth inhibition.
-0.6

Consider the compound c1ccc(-c2cc(-c3ccccc3)n(-c3ccccc3)c2-c2ccccc2)cc1 and give its measured growth inhibition.
-3.35

Consider the compound O=C(Nc1ccn(CCOC(=O)c2ccccc2)c(=O)n1)c1ccccc1 and give its measured growth inhibition.
47.6

Consider the compound C1=NN=C2C=C3CCc4ccccc4C3CC12 (stereo unspecified) and give its measured growth inhibition.
18.6

Consider the compound Cc1ccc(N=C(c2ccccc2)c2ccc([N+](=O)[O-])cc2)cc1 and give its measured growth inhibition.
-11.8
